Cited source: patent US20240376185A1

maximal absorbance value by entry:
- Target entity: tetanus neurotoxin (TeNT), authentic tetanus holotoxin (Clostridium tetani, UniProt P04958 2-1315)
- Sequence (P04958 2-457 limits assumed, chain 1 of 2): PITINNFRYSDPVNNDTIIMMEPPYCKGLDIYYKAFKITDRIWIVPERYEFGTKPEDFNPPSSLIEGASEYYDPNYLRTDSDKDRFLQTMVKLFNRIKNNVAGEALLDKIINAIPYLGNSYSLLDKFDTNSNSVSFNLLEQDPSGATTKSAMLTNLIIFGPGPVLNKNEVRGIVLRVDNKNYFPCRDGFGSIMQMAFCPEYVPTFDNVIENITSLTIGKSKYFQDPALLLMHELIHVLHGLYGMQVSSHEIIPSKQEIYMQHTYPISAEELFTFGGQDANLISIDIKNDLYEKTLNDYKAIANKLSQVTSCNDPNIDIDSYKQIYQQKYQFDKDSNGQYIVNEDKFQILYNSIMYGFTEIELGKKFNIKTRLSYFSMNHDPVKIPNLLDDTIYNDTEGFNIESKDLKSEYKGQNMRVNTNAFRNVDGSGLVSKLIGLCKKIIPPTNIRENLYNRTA
- Sequence (P04958 458-1315 limits assumed, chain 2 of 2): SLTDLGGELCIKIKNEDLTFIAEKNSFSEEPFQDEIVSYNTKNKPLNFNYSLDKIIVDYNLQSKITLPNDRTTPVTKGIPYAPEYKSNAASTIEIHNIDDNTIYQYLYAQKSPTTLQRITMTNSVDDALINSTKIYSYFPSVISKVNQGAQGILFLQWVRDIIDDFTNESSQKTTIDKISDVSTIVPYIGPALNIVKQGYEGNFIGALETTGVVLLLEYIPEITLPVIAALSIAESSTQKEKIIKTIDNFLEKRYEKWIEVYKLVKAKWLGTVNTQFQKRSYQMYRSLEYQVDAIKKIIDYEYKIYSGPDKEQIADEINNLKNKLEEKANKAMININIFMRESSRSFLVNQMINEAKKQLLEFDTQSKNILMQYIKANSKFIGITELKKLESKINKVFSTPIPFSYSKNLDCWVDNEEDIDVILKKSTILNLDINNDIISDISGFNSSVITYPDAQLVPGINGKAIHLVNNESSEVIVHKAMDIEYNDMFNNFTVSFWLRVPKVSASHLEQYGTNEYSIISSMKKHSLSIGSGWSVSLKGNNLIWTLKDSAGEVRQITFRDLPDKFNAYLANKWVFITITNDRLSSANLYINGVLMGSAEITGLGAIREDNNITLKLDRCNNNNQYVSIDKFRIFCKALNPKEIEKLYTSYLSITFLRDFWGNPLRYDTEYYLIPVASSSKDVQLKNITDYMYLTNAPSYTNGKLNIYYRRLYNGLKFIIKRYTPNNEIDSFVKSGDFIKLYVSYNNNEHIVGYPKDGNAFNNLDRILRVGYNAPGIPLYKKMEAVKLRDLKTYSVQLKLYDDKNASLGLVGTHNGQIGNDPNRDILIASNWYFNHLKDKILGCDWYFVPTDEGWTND
- Assay name: ELISA: directly coated TeNT, goat anti-llama Ig PO

binder="SVT15L-3FW4M (VHH) VHH: QVQLQESGGGLVQTGGSLRLSCRASGRAFANYHFGWFRQAPGKDREFVASISWKGGSTYYANFALGRFTSSVDRAESSVYLQMSGLTPEDTATYYCAAHDGGDWNYHTGMDYWGQGTQVTVSS" reported_metric="maximal absorbance value" recorded_result="0.35 A450"

Task: Give reported maximal absorbance value value for SVT02-GS2-SVG13M4-H6 (bispecific antibody) QVQLQQSGGGSVQAGGSLRLSCVGPQRTFSTYGMGWFRQAPGKEREFVAGINYKGDTTYYADSVKGRFTISRDNAKNTLYLQMDSLKPEDRAVYQCARKGGLGGDYRDAGQYRYWGQGTQVTVSSGGGGSGGGSEVQLVESGGGLVQPGGSLRLSCEASGFTFDDYGMSWVRQAPGKGLEWVSSLTPNGGSTYYADSVKGRFTISRDNAKNTLYLQMNSLKPEDTALYYCAKNSYYGAMDYWGQGTQVTVSSHHHHHH
Result: 0.09 A450
